Listing of entries alongside the reported relative affinity.
target: T1, HLA-DR11 (HLA-DRB1*11:01) (human); test: competition ELISA vs biotin-HA 306-318;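 note: HLA and competitor incubated 24 to 72 h, maximal signal taken from wells lacking competitor, background from wells lacking HLA molecule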
T1 construct: mature; purified from homozygous EBV-transformed lymphoblastoid cells with antibody L243
No end group written: not given here.
result-type: relative affinity

binder	observed-value
RAILIDWLVQVQMKF-NH2 [CCNB1 202-216]	400
KKMLQLVGVTAMFIA-NH2 [CCNB1 241-255]	90
LQLVGVTAMFIASKY-NH2 [CCNB1 244-258]	23
MTVSIIDRFMQNNCV-NH2 [CCNB1 225-239]	31
